# MEASUREMENT_TARGET: T1, hiR2-FL-P533-T7 (deletion of P533) (human, UniProt Q6PJF5 1-856)
# T1 construct: single residue deletion, not a substitution; on MEF-DKO cells
# T1 sequence: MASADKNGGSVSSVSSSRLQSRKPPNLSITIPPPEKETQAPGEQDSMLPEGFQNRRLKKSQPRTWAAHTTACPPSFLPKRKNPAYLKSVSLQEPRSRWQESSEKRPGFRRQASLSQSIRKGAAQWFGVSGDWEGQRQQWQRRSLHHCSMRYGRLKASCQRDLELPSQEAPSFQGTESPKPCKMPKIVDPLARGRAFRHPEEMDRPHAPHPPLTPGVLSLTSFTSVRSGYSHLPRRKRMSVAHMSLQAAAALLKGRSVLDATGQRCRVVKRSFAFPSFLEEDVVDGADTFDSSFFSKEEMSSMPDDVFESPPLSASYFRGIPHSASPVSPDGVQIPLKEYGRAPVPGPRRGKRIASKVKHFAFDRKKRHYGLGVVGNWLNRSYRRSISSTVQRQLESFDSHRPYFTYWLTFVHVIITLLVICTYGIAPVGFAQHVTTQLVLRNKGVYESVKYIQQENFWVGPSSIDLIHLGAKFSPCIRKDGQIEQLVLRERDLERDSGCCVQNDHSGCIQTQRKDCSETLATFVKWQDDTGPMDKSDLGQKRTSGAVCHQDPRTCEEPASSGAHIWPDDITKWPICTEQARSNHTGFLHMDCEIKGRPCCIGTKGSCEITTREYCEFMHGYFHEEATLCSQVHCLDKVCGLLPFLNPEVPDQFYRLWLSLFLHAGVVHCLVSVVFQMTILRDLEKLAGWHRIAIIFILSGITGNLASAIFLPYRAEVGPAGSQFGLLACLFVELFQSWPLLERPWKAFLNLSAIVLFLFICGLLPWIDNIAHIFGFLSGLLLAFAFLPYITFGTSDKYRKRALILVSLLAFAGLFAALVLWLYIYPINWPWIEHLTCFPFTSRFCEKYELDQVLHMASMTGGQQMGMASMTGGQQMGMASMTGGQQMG
# ASSAY_METHOD_TEXT: FACS, MEF-DKO cells, 3 µg/ml
Catalogue of loss of binding vs wild type readings, one per entry.

Record excerpt, results attached:
>  <BINDER>
antibody 44 (antibody, V domains shown, mouse IgG, kappa light chain; also called clone #44; purified antibody 44) VH: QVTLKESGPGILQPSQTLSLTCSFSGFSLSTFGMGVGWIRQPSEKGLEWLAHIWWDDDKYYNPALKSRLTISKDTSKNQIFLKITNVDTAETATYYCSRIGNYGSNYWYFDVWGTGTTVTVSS VL: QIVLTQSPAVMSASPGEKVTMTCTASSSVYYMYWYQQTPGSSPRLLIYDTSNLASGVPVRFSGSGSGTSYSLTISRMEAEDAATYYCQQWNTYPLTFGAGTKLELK

>  <loss of binding vs wild type>
≥ 95%

$$$$
>  <BINDER>
antibody 16 (antibody, V domains shown, mouse IgG, kappa light chain; also called clone #16; purified antibody 16) VH: QVTLKESGPGILQPSQTLSLTCSFSGFSLSTFALGVGWIRQPSGRGLEWLAHIWWDDDKYYNPALKSRLTISKDTSKNHVFLKIANVDTADTATYYCARITTYYYGMDYWGQGTSVTVSS VL: DIVLSQSPATLSVTPGDSVSLFCRASQSIGNHLHWYQQESHASPRLLIKYASQSISGIPSRFSGSGSGTDFTLSINSVETEDFGMYFCQQSYNWPLTFGAGTKLELK

>  <loss of binding vs wild type>
≥ 95%

$$$$

For the binder antibody 22 (antibody, V domains shown, mouse IgG, kappa light chain; also called clone #22; purified antibody 22) VH: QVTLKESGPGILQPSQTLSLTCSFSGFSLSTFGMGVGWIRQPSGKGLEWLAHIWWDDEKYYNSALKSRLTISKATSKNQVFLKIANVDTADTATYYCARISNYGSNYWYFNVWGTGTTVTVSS VL: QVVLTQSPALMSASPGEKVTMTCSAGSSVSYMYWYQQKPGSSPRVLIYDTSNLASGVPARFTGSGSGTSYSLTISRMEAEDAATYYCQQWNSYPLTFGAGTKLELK , give its reported loss of binding vs wild type.
≥ 95%
